Target: cloned human dopamine D3 receptors (Homo sapiens)
Construct: expressed in transfected cells; membrane homogenate
Test: [N-Methyl-3H]Spiroperidol binding to cloned human dopamine D3 receptors (Protocol 1)
Settings: the 19th table; read-out: D3 Ki
pKi: −log10 of the molar value.
Tick Satisfied if pKi is 7 or greater. Tick Not satisfied if pKi is less than 7.

[Q] Does pKi meet or surpass 7 for COc1cccc(C(=O)Nc2ccc(CN3CCN(c4csc5cc(F)ccc45)CC3)cc2)c1 ?
[A] Not satisfied

[Q] Request: COc1cccc(C(=O)Nc2cccc(CN3CCN(c4csc5cc(F)ccc45)CC3)c2)c1
[A] Not satisfied

[Q] Request: COc1ccc(C(=O)Nc2ccc(CN3CCN(c4csc5cc(F)ccc45)CC3)cc2)cc1OC
[A] Not satisfied

[Q] Request: COc1ccc(C(=O)Nc2cccc(CN3CCN(c4csc5cc(F)ccc45)CC3)c2)cc1OC
[A] Satisfied

[Q] Request: O=C(Nc1cccc(CN2CCN(c3csc4cc(F)ccc34)CC2)c1)c1ccc2[nH]nnc2c1
[A] Satisfied

[Q] Request: O=C(Nc1ccc(CN2CCN(c3csc4cc(F)ccc34)CC2)cc1)c1ccccc1F
[A] Not satisfied

[Q] Request: O=C(Nc1cccc(CN2CCN(c3csc4cc(F)ccc34)CC2)c1)c1cccc(F)c1
[A] Not satisfied

* * *

Biological target: cloned human dopamine D3 receptors (Homo sapiens, UniProt P35462)
Construct: expressed in transfected cells; membrane homogenate
Sequence (P35462 whole entry): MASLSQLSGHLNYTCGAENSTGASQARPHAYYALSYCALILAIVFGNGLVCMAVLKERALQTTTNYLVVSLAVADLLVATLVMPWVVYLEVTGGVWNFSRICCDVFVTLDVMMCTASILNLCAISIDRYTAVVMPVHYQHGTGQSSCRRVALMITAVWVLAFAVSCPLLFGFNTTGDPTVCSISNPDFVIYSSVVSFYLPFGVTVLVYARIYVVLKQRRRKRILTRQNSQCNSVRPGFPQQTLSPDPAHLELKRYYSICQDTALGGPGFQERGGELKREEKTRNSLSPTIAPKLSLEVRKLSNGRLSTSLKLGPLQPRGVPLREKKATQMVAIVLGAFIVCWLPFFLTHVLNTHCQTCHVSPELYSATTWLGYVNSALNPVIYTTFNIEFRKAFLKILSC
Experiment: [N-Methyl-3H]Spiroperidol binding to cloned human dopamine D3 receptors (Protocol 1)
Conditions: read-out: D3K1
Please respond with reported log10 Ki for every item in the list.
Please be aware that the numbers have been log10-transformed from Ki in nM.

[Q] # log10 Ki lookup, item COc1cc(OC)cc(C(=O)NCCCCN2CCN(c3csc4cc(C(F)(F)F)ccc34)CC2)c1
[A] 1.51

[Q] Request: O=C(NCCCCN1CCN(c2c(Cl)sc3cc(F)ccc23)CC1)c1c(F)cccc1F
[A] 1.18

[Q] Request: O=C(NCCCCN1CCN(c2csc3cc(C(F)(F)F)ccc23)CC1)c1ccc(-c2ccccc2)cc1
[A] 0.64

[Q] Request: O=C(NC(CO)CCCN1CCN(c2csc3cc(C(F)(F)F)ccc23)CC1)c1ccc(Cl)cc1 (stereo not shown)
[A] 2.39

[Q] Request: O=C(NCCCCN1CCN(c2csc3cc(C(F)(F)F)ccc23)CC1)c1sc2ccccc2c1Cl
[A] 1.69

[Q] Request: Cc1ccc(C(=O)N[C@H](CO)CCCN2CCN(c3csc4cc(C(F)(F)F)ccc34)CC2)cc1
[A] 2.30

[Q] Request: O=C(NC/C=C\CN1CCN(c2csc3cc(C(F)(F)F)ccc23)CC1)c1cc2ccccc2s1
[A] 1.45

* * *

Please respond with reported pKi for every item in the list.
Biological target: cloned human dopamine D3 receptors (Homo sapiens, UniProt P35462)
Construct: expressed in transfected cells; membrane homogenate
Experiment: [N-Methyl-3H]Spiroperidol binding to cloned human dopamine D3 receptors (Protocol 1)
Conditions: the 23rd table; read-out: D3 Ki
Scale explanation: pKi corresponds to minus log10 of a concentration expressed in moles per litre.

[Q] # pKi lookup, item CCC1CCCC1NC[C@@H]1C[C@H]1CN1CCN(c2csc3cc(C(F)(F)F)ccc23)CC1 (mixture of isomers)
[A] 7.72

[Q] Request: FC(F)(F)c1ccc2c(N3CCN(C[C@@H]4C[C@H]4CNCCSc4ccc(Cl)cc4)CC3)csc2c1
[A] 7.14

[Q] Request: FC(F)(F)c1ccc2c(N3CCN(C[C@@H]4C[C@H]4CN4CCC(n5ccnc5)CC4)CC3)csc2c1
[A] 7.64

[Q] Request: FC(F)(F)c1ccc2c(N3CCN(CC4CC4CNCCCN4CCCCC4)CC3)csc2c1 (racemic)
[A] 7.55

[Q] Request: COc1ccccc1N1CCN(C[C@@H]2C[C@H]2CN2CCN(c3csc4cc(C(F)(F)F)ccc34)CC2)CC1
[A] 9.08

[Q] Request: CC[C@H]1CC[C@H](NC[C@@H]2C[C@H]2CN2CCN(c3c(Cl)sc4cc(C(F)(F)F)ccc34)CC2)CC1
[A] 6.82

[Q] Request: COc1ccc(NC[C@@H]2C[C@H]2CN2CCN(c3csc4cc(C(F)(F)F)ccc34)CC2)cc1
[A] 7.24

* * *

Biological target: cloned human dopamine D3 receptors (Homo sapiens)
Construct: expressed in transfected cells; membrane homogenate
Test: [N-Methyl-3H]Spiroperidol binding to cloned human dopamine D3 receptors (Protocol 1)
Settings: the 15th table; read-out: D3 Ki
Class boundaries, taken from values of Ki, are as follows: 0 (below 200 nM), 1 (200 nM to below 300 nM), 2 (300 nM or more)

[Q] Would you mind sorting O=C(NCCCCN1C2CCC1CC(c1noc3cc(F)ccc13)C2)c1cccs1 (stereo not shown) into the appropriate category?
[A] 2

[Q] Request: O=C(NCCCCN1C2CCC1CC(c1noc3cc(F)ccc13)C2)c1ccc(Br)cc1 (stereo not shown)
[A] 1

[Q] Request: O=C(NCCCCN1C2CCC1CC(c1noc3cc(F)ccc13)C2)c1ccccc1C(F)(F)F (stereo not shown)
[A] 2

[Q] Request: O=C(NCCCCN1C2CCC1CC(c1noc3cc(F)ccc13)C2)c1cccc2ccccc12 (stereo not shown)
[A] 0

[Q] Request: O=C(NCCCCN1C2CCC1CC(c1noc3ccccc13)C2)c1ccccc1[N+](=O)[O-] (stereo not shown)
[A] 2

[Q] Request: O=C(NCCCCN1C2CCC1CC(c1noc3cc(F)ccc13)C2)c1ccc(C(F)(F)F)cc1 (stereo not shown)
[A] 1

[Q] Request: CCCCOc1ccc(C(=O)NCCCCN2C3CCC2CC(c2noc4ccccc24)C3)cc1 (stereo not shown)
[A] 0

[Q] Request: O=C(NCCCCN1C2CCC1CC(c1noc3cc(F)ccc13)C2)c1ccc(F)cc1 (stereo not shown)
[A] 2

[Q] Request: O=C(NCCCCN1C2CCC1CC(c1noc3cc(F)ccc13)C2)c1cc2ccccc2s1 (stereo not shown)
[A] 0

[Q] Request: O=C(NCCCCN1C2CCC1CC(c1noc3ccccc13)C2)c1ccccc1C(F)(F)F (stereo not shown)
[A] 1

[Q] Request: COc1ccccc1C(=O)NCCCCN1C2CCC1CC(c1noc3cc(F)ccc13)C2 (stereo not shown)
[A] 2

[Q] Request: CCCCOc1ccc(C(=O)NCCCCN2C3CCC2CC(c2noc4cc(F)ccc24)C3)cc1 (stereo not shown)
[A] 0

[Q] Request: O=C(NCCCCN1C2CCC1CC(c1noc3ccccc13)C2)c1cccc(F)c1F (stereo not shown)
[A] 1

[Q] Request: O=C(NCCCCN1C2CCC1CC(c1noc3ccccc13)C2)c1ccc(C(F)(F)F)cc1 (stereo not shown)
[A] 0

[Q] Request: O=C(NCCCCN1C2CCC1CC(c1noc3ccccc13)C2)c1ccc(Cl)cc1 (stereo not shown)
[A] 0

* * *

Target: cloned human dopamine D3 receptors (Homo sapiens)
Construct: expressed in transfected cells; membrane homogenate
Assay: [N-Methyl-3H]Spiroperidol binding to cloned human dopamine D3 receptors (Protocol 1)
Details: the 17th table; read-out: D3 Ki
Strictly below 30 nM in Ki: condition met. Otherwise: condition not met.

[Q] API: query returns whether the molecule falls strictly under 30 nM in Ki. Query: COc1ccc(C(=O)NCC2CC2CN2CCCN(c3csc4cc(F)ccc34)CC2)cc1 (racemic) [compound 830405]
[A] condition met

[Q] Request: O=C(NCC1CC1CN1CCCN(c2csc3cc(F)ccc23)CC1)c1ccc(-c2ccccc2)cc1 (racemic) [compound 830406]
[A] condition met

[Q] Request: O=C(NCC1CC1CN1CCCN(c2csc3cc(F)ccc23)CC1)c1ccc(C(F)(F)F)cc1 (racemic) [compound 830404]
[A] condition not met

[Q] Request: CCCCc1ccc(C(=O)N(Cc2ccccc2)CC2CC2CN2CCCN(c3csc4cc(F)ccc34)CC2)cc1 (racemic) [compound 830395]
[A] condition met

[Q] Request: O=C(c1ccc(F)cc1)N(Cc1ccccc1)CC1CC1CN1CCCN(c2csc3cc(F)ccc23)CC1 (racemic) [compound 830393]
[A] condition met

[Q] Request: Cc1ccc(C(=O)NCC2CC2CN2CCCN(c3csc4cc(F)ccc34)CC2)cc1 (racemic) [compound 830403]
[A] condition not met

* * *

Target: cloned human dopamine D3 receptors (Homo sapiens, UniProt P35462)
Construct: expressed in transfected cells; membrane homogenate
Assay: [N-Methyl-3H]Spiroperidol binding to cloned human dopamine D3 receptors (Protocol 1)
Conditions: D3 Ki (nM), the 25th table
Please respond with reported Ki for every item in the list.
Quick reminder: number only, in nM, skip the unit.

[Q] # Ki lookup, item O=C(NCC1CC1CN1CCC(c2noc3ccsc23)CC1)Oc1ccc(F)cc1 (stereo not shown)
[A] 8.35

[Q] Request: Cc1ccc(OC(=O)NCC2CC2CN2CCC(c3noc4ccsc34)CC2)cc1 (stereo not shown)
[A] 29.4

[Q] Request: O=C(NCC1CC1CN1CCC(c2noc3ccsc23)CC1)Oc1ccccc1 (stereo not shown)
[A] 3.04

[Q] Request: COc1ccc(OC(=O)NCC2CC2CN2CCC(c3noc4ccsc34)CC2)cc1 (stereo not shown)
[A] 96.4

These data points were gathered from patent US7550469B2.
